The measurements presented in this section are drawn from the antibiotic and cytotoxicity screens of Wong et al. (2023).

System: S. aureus RN4220
TEST_DETAILS: growth inhibition call (relative growth <= 0.2)
CONDITION_SET: 50 µM
Out of some 39,000 compounds screened, about 500 (1.3%) were called active. This excerpt belongs to a sample that is enriched for actives.
// allowed return values: active, inactive

- INPUT_SMILES: "C[C@H]1CN([C@@H](C)CO)C(=O)Cc2cc(NC(=O)CCN3CCOCC3)ccc2O[C@H]1CN(C)Cc1ccccc1"
  CLASS: "inactive"
- INPUT_SMILES: "OCCC[C@@H](O)c1ccc(OCCO)cc1"
  CLASS: "inactive"
- INPUT_SMILES: "C[C@H]1CCCCO[C@H](CN(C)C(=O)Nc2ccccc2)[C@@H](C)CN([C@@H](C)CO)C(=O)c2cc(NC(=O)Cc3ccccc3)ccc2O1"
  CLASS: "inactive"
- INPUT_SMILES: "C[C@@H]1CN([C@@H](C)CO)C(=O)c2c(c3ccccc3n2C)-c2ccccc2CO[C@H]1CN(C)Cc1ccc(C(=O)O)cc1"
  CLASS: "inactive"
- INPUT_SMILES: "C[C@H](CO)N1C[C@H](C)[C@H](CN(C)C(=O)CCCN(C)C)OCCCC[C@H](C)Oc2ccc(NS(C)(=O)=O)cc2C1=O"
  CLASS: "inactive"

Q) # outcome recorded in this test, key = "CC(C)c1cc(=O)n2nc(N)nc2[nH]1"
A) inactive

Q) Name the outcome recorded for "Cc1ccc(NC(=O)Nc2cc(C(F)(F)F)ccc2F)cc1Nc1ccc2c(c1)NC(=O)/C2=C\c1ccc[nH]1" in the assay.
A) inactive

Q) Per the records of this test, what outcome belongs to "CN1C(=O)c2cc(NC(=O)Nc3ccccc3F)ccc2OC[C@H]2O[C@@H](CC(=O)NCc3ccc(-c4ccccc4)cc3)CC[C@H]21" ?
A) inactive

Q) What is the recorded call for this molecule in the test? "N=C(N)c1ccc(OCCCCCOc2ccc(C(=N)N)cc2)cc1.O=S(=O)(O)CCO.O=S(=O)(O)CCO"
A) active

Q) # fetch the recorded call for "Cn1c(-c2ccccc2)c[nH]c1=S" here
A) inactive

Q) Field: outcome | Entry: "S=c1[nH]cc(-c2ccccc2)[nH]1"
A) active

Q) Any idea what this test logged for "COc1cccc(CNC(=O)c2cc3c(c(-c4cccc(-c5ccncc5)c4)n2)[C@@H](CCO)N([S@](=O)C(C)(C)C)C3)c1" ?
A) inactive

Q) Status in this test for "C[C@@H]1CCCCO[C@@H](CN(C)Cc2ccc(C(=O)O)cc2)[C@@H](C)CN([C@H](C)CO)C(=O)c2cc(NC(=O)Nc3ccc(F)cc3)ccc2O1" ?
A) inactive

Q) Can you look up the reported call for "C[C@H]1CCCCO[C@H](CN(C)CC2CCCCC2)[C@@H](C)CN([C@@H](C)CO)C(=O)c2cc(NC(=O)C3CCCCC3)ccc2O1" for me?
A) inactive

Q) Call for entry "COc1ccc(CN(C)C[C@H]2OCCCC[C@H](C)Oc3ccc(NC(=O)c4ccccc4)cc3C(=O)N([C@@H](C)CO)C[C@@H]2C)cc1" :
A) inactive

Q) State the result this test recorded for "C[C@H]1CN([C@@H](C)CO)C(=O)c2cc(NC(=O)Nc3ccc(C(F)(F)F)cc3)ccc2O[C@@H]1CN(C)C(=O)Nc1ccc2c(c1)OCO2" .
A) inactive
